Target: T1, LILRB1-ECD-HIS (SinoBiological Cat #: 16014-H02H) (human, UniProt Q8NHL6 24-461)
T1 construct: Bought protein; also called monomeric antigen LILRB1-ECD-HIS; not shown: His tag
T1 sequence (Q8NHL6 other isoform, or with tags, fused parts or gaps H02H H02H): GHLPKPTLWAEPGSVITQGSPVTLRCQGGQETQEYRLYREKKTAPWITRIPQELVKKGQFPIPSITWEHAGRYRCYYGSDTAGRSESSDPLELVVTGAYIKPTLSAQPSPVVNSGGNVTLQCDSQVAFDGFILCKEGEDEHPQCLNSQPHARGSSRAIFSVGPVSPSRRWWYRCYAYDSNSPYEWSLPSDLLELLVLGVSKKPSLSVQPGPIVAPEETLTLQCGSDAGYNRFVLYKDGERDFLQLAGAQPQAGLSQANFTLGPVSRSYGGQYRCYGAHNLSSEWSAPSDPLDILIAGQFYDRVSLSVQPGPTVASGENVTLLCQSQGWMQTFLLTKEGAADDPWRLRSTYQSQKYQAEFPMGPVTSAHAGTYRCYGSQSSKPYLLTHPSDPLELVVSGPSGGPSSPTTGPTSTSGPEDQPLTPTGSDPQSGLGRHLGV
Assay: SPR (Carterra), LILRB1-ECD-his
MEASUREMENT_KIND: koff (s⁻¹)
Give the value in s⁻¹ but do not write s⁻¹ after it.

koff in this record for D2M002-126 (antibody, V domains shown, Humanized and optimized variant of D2M002-026) VH: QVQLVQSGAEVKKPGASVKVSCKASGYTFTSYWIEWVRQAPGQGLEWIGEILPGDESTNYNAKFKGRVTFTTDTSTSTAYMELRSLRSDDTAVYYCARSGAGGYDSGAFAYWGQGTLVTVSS VL: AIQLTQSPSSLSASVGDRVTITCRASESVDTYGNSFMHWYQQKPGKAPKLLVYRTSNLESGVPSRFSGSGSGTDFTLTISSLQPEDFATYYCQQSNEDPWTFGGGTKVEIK : 2.17e-05

Note to self: koff recorded for D2M002-002 (antibody, V domains shown, Hit from immunised mice; also called clone #2; anti-LILRB1/2 clone #2) VH: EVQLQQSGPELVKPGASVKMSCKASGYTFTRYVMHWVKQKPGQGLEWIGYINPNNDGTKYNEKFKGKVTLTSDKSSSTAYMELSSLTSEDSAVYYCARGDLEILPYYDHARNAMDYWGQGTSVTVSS VL: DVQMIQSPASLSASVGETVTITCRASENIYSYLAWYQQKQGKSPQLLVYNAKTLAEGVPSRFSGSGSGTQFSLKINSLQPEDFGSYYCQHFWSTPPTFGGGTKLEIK was 0.000347

Recorded koff (binder D2M002-026 (antibody, V domains shown, Hit; also called clone #26) VH: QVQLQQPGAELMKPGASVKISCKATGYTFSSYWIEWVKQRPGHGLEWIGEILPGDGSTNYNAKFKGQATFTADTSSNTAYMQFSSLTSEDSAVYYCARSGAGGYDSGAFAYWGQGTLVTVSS VL: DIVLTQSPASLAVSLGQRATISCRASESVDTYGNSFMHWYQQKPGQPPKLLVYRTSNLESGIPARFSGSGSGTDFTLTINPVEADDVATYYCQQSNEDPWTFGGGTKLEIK ): 2.79e-05

D2M002-103 (antibody, V domains shown, also called P212_F01) VH: QVQLVQSGAEVKKPGASVKVSCKASGYTFTRYVMHWVRQAPGQRLEWMGWINPNNEETKYSQKFKGRVTLTRDTSASTAYMELSSLRSEDTAVYYCARADLEILPYYDHARYAMDYWGQGTLVTVSS VL: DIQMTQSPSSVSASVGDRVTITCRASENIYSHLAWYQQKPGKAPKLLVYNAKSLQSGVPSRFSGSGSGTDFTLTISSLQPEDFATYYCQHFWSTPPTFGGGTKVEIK yielded koff of 0.00101
